Origin of measurements: PubChem BioAssay (Tox21)

Experiment: qHTS assay to test for compound auto fluorescence at 535 nm (green) in HEK293 cells (AID 720680)
Details: green autofluorescence 485/535 nm; series mostly up to 91.3 µM
The source made the active and inactive calls. Calls come from the whole dose curve; as a rule, active = well fitted curve in the direction sought with a large enough effect in the repeat runs; inconclusive = weak or mixed curves; inactive = flat fitted curve, though single readings scatter.

# MOLECULE, outcome
rows = [
    ("C[C@]12CC[C@@H]3c4ccc(O)cc4C[C@@H](CCCCCCCCCS(=O)CCCC(F)(F)C(F)(F)F)[C@H]3[C@@H]1CC[C@@H]2O (stereo not given in full)", "inactive"),
    ("OC[C@@H](O)[C@@H](O)[C@H](O)[C@H](O)CO", "inactive"),
    ("CN/C(=C\\[N+](=O)[O-])NCCSCc1ccc(CN(C)C)o1", "inactive"),
    ("COc1ccc(O)cc1", "inactive"),
    ("C[C@]12C[C@H](O)[C@H]3[C@@H](CCC4=CC(=O)CC[C@@]43C)[C@@H]1CC[C@@H]2C(=O)CO", "inactive"),
]
